Molecular target: T1, carrier-free soluble human IL-6R (R&D) (human, UniProt P08887 20-365)
T1 construct: extracellular domain; also called shuIL-6R; shuIL6-R
T1 sequence (looked up): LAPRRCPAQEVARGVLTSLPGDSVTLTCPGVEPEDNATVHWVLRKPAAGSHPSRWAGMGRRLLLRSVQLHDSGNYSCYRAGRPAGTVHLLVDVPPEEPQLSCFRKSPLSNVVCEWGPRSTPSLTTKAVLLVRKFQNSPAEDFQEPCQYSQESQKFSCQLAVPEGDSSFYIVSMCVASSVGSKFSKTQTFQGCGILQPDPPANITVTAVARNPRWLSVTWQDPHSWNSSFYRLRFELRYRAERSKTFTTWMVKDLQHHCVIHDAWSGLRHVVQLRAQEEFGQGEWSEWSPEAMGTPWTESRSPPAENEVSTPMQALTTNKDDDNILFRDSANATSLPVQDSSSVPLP
Test: SPR (Biacore 2000), mAb captured on anti-human IgG Fc, analyte in solution, 25 C, 1:1 Langmuir
Known Kd of a selection of binders
Quick reminder: number only, in pM, skip the unit.

Task item: Fill blank: measured Kd of the binder NI-1201-C antibody (antibody, V domains shown) VH: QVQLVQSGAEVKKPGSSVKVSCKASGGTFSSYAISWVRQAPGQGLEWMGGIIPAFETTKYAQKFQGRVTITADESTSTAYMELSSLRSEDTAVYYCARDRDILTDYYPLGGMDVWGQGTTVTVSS VL: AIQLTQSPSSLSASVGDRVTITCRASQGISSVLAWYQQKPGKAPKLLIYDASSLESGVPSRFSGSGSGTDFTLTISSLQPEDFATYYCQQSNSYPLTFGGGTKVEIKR is ____.
Reply: 110

Task item: What value of Kd has been recorded for this entry: NI-1201-A antibody (antibody, V domains shown) VH: QVQLVQSGAEVKKPGSSVKVSCKASGGTFSSYAISWVRQAPGQGLEWMGGIIPLFDTTKYAQKFQGRVTITADESTSTAYMELSSLRSEDTAVYYCARDRDILTDYYPMGGMDVWGQGTTVTVSS VL: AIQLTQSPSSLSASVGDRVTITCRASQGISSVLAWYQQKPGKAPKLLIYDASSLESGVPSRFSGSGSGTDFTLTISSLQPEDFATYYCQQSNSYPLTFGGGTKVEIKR
Reply: 121

Task item: What value of Kd has been reported for the following binder? NI-1201 wild type (NI-1201-WT) antibody (antibody, V domains shown, Fully human monoclonal IgG (captured by anti-human IgG Fc in Biacore); also called 39B9 VL1) VH: QVQLVQSGAEVKKPGSSVKVSCKASGGTFSSYAISWVRQAPGQGLEWMGGIIPLFDTTKYAQQFQGRVTITADESTSTAYMELSSLRSEDTAVFYCARDRDILTDYYPMGGMDVWGQGTTVTVSS VL: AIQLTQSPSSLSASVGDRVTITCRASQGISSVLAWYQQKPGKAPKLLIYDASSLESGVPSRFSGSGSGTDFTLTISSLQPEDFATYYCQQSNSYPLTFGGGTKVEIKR
Reply: 56.7
